Assay: CCTE_Shafer_MEA_acute_interburst_interval_mean: CCTE's Neural Acute Assay for Mean Interburst Interval, Shafer Lab (AID 2284016);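 further: percent change of mean interburst interval versus each well's own pre-dose baseline; curves fitted for decrease in interburst interval relative to DMSO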
Active and inactive are the calls of the source. How the source made its calls: active means hit-call score of the fitted dose curve at least 0.9, where 1 is the maximum; inactive means score below 0.9.
Field 'call' accepts active, inactive

State the result this test recorded for CC(C)(c1cc(Br)c(O)c(Br)c1)c1cc(Br)c(O)c(Br)c1 .
inactive

State the result this test recorded for CN(C)c1ccc(C(=C2C=CC(=[N+](C)C)C=C2)c2ccc(N(C)C)cc2)cc1 .
inactive

State the result this test recorded for CCCCCCCCOC(=O)c1cc(O)c(O)c(O)c1 .
inactive

State the result this test recorded for Cc1cc2c(cc1C(F)(F)F)N(C(=O)Nc1ccc(Oc3cccnc3C)nc1)CC2 .
inactive

State the result this test recorded for O=C1O[C@H]([C@@H](O)CO)C(O)=C1O .
inactive

State the result this test recorded for Cc1c2ccccc2c(C)c2c1ccc1ccccc12 .
active

State the result this test recorded for CC1=CC(=O)/C(=C(/C)O)C(=O)O1 .
inactive

State the result this test recorded for COc1cc(C(=O)NC2CCN(C)CC2)ccc1Nc1ncc2c(n1)N(C1CCCC1)CC(F)(F)C(=O)N2C .
active

State the result this test recorded for CN(C)C(=O)C1(N2CCCCC2)CCN(CC[C@@]2(c3ccc(Cl)c(Cl)c3)CN(C(=O)c3ccccc3)CCO2)CC1 .
inactive

State the result this test recorded for CC[C@@H]1C[C@H](N(Cc2cc(C(F)(F)F)cc(C(F)(F)F)c2)C(C)=O)c2cc(C(F)(F)F)ccc2N1C(=O)OC(C)C .
inactive

State the result this test recorded for NC(=O)c1nc(-c2cccc(-c3cc(F)ccc3OCC(F)(F)C(F)(F)F)c2)n[nH]1 .
inactive

State the result this test recorded for CC/C(=C(/CC)c1ccc(O)cc1)c1ccc(O)cc1 .
inactive

State the result this test recorded for CCCCOC(=O)c1ccc(O)cc1 .
active

State the result this test recorded for Cc1cn([C@H]2C[C@H](N=[N+]=[N-])[C@@H](CO)O2)c(=O)[nH]c1=O .
inactive

State the result this test recorded for CC(O)CC(C)(C)O (stereo unspecified) .
inactive

State the result this test recorded for O=c1[nH]sc2ccccc12 .
active

###

Read-out: Monocyte Chemoattractant Protein-1 (MCP1), CCL2 (gene 6347)
Experiment: BSK_SAg_MCP1: BioMAP Diversity Plus: SAg Assay for Monocyte Chemoattractant Protein-1 (MCP1) Biomarker Activity (AID 2283090)
Details: primary human HUVEC with PBMC; actives raise or lower the signal
The source made the active and inactive calls. The calls were made as follows: active = hit-call score of the fitted dose curve at least 0.9, where 1 is the maximum; inactive = score below 0.9.
Field 'call' accepts active, inactive

State the result this test recorded for O=C1O[C@H]([C@@H](O)CO)C(O)=C1O .
inactive

State the result this test recorded for CN1C(=O)N(c2ccccc2Br)Cc2cnc(Nc3ccc4c(c3)OCC(CO)O4)nc21 (configuration not stated) .
active

State the result this test recorded for OCCO .
inactive

State the result this test recorded for Cc1cccc2ccccc12 .
inactive

State the result this test recorded for O=C(Nc1ccc(Cl)cc1)Nc1ccc(Cl)c(Cl)c1 .
active

State the result this test recorded for CCO[Si](CCCNC(N)=O)(OCC)OCC .
inactive

State the result this test recorded for O=c1[nH]sc2ccccc12 .
active

State the result this test recorded for CN(C[C@@H](CC[N+]12CCC(C3CCCCC3)(CC1)CC2)c1ccc(Cl)c(Cl)c1)C(=O)c1cc(C(F)(F)F)cc(C(F)(F)F)c1 .
active

State the result this test recorded for C[C@]12CC[C@@H]3c4ccc(O)cc4CC[C@H]3[C@@H]1CC[C@H]2O .
active

State the result this test recorded for COCC(C)OCC(C)OCC(C)O (configuration not stated) .
inactive

State the result this test recorded for CCCCCCCCOc1ccc(C(=O)c2ccccc2)c(O)c1 .
inactive

State the result this test recorded for Clc1cc(Cl)c2c(c1)N=C1CCCCCN1C2 .
inactive

State the result this test recorded for CCCCCCCCOC(=O)c1cc(O)c(O)c(O)c1 .
active

State the result this test recorded for CC(=O)N1CCN(c2ccc(OC[C@H]3CO[C@](Cn4ccnc4)(c4ccc(Cl)cc4Cl)O3)cc2)CC1 .
active

State the result this test recorded for Oc1ccc2ccccc2c1 .
inactive

State the result this test recorded for Cc1cc2c(cc1C(F)(F)F)N(C(=O)Nc1ccc(Oc3cccnc3C)nc1)CC2 .
inactive

State the result this test recorded for Cc1cc(F)ccc1-c1cc(N2CC[C@@H](O)[C@H]2CO)ncc1N(C)C(=O)C(C)(C)c1cc(C(F)(F)F)cc(C(F)(F)F)c1 .
active

State the result this test recorded for O=c1ccc2ccccc2o1 .
inactive

State the result this test recorded for NCc1cccc(C2CCN(C(=O)c3ccc(C#Cc4ccccc4F)o3)CC2)c1 .
active

State the result this test recorded for CN1C(=O)CC[C@H]1c1cccnc1 .
inactive

State the result this test recorded for CO[C@H]1/C=C/O[C@@]2(C)Oc3c(C)c(O)c4c(O)c(c(/C=N/N5CCN(C)CC5)c(O)c4c3C2=O)NC(=O)/C(C)=C\C=C\[C@H](C)[C@H](O)[C@@H](C)[C@@H](O)[C@@H](C)[C@H](OC(C)=O)[C@@H]1C .
inactive

State the result this test recorded for CC(C)(C)c1cc(/C=C2\SC(N)=NC2=O)cc(C(C)(C)C)c1O .
active

State the result this test recorded for O=C=NCCCCCCN=C=O .
inactive

State the result this test recorded for CC1(C)NC(=O)N(c2ccc([N+](=O)[O-])c(C(F)(F)F)c2)C1=O .
inactive

State the result this test recorded for CCCCCCCCCCCO .
inactive

State the result this test recorded for O=C(OCCCCCCOC(=O)c1ccccc1)c1ccccc1 .
inactive

State the result this test recorded for Oc1ccccc1 .
inactive

###

Assay: BSK_SAg_PBMCCytotoxicity: PBMC Cytotoxicity Assessment in the BioMAP Diversity Plus: SAg Assay (AID 2283093);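 further: PBMC viability measured as Alamar Blue reduction fluorescence at 546/580 nm; fitted both ways against DMSO so a hit may be loss or gain of signal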
Details: primary human HUVEC with PBMC
Active and inactive are the calls of the source. The calls were made as follows: active = hit-call score of the fitted dose curve at least 0.9, where 1 is the maximum; inactive = score below 0.9.
Field 'call' accepts active, inactive

State the result this test recorded for C[C@]12CC[C@@H]3c4ccc(O)cc4CC[C@H]3[C@@H]1CC[C@H]2O .
inactive

State the result this test recorded for CCCCCCCCCCCO .
active

State the result this test recorded for Cc1cn([C@H]2C[C@H](N=[N+]=[N-])[C@@H](CO)O2)c(=O)[nH]c1=O .
inactive

State the result this test recorded for c1ccc2ccccc2c1 .
inactive

State the result this test recorded for CC[C@H](NC(=O)c1cc(F)ccc1NS(=O)(=O)c1cccc2cccnc12)c1ccccc1 .
inactive

State the result this test recorded for CCCCOC(=O)c1ccc(O)cc1 .
inactive

###

Biological target: Muscarinic acetylcholine receptor M5 (Homo sapiens) (UniProt P08912)
Sequence (P08912 whole entry, looked up): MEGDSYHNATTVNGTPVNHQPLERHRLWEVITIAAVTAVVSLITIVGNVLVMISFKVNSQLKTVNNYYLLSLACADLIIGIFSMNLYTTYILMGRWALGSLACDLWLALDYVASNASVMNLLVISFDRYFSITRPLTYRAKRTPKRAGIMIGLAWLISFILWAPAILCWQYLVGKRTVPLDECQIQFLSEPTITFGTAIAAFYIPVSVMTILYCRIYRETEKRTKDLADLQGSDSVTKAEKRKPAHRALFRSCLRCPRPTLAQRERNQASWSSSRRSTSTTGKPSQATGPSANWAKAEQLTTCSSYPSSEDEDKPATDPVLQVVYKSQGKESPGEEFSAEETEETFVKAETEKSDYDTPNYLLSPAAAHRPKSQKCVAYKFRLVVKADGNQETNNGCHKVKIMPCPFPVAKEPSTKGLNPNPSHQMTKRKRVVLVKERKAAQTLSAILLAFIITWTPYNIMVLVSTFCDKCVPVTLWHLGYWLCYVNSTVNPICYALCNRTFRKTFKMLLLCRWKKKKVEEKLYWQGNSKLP
Assay: NVS_GPCR_hM5: NovaScreen (NVS) G Protein-Coupled Receptor Assay for human Muscarinic, M5 Receptor (AID 2283275)
The source made the active and inactive calls. The calls were made as follows: active = hit-call score of the fitted dose curve at least 0.9, where 1 is the maximum; inconclusive = response in the unintended direction; inactive = score below 0.9.
experimental-endpoint: AC50

What AC50 value was documented for this molecule, COc1cc(C(=O)NC2CCN(C)CC2)ccc1Nc1ncc2c(n1)N(C1CCCC1)CC(F)(F)C(=O)N2C ?
11.9 µM (active)

What AC50 value was documented for this molecule, CCOC(=O)O[C@H](C)OC(=O)c1ccc2c(c1)cc(C(=O)NC1CCN(C(C)C)CC1)n2Cc1cc(-c2ccc(Cl)s2)on1 ?
1.79 µM (active)

What AC50 value was documented for this molecule, CN(C)c1ccc(C(=C2C=CC(=[N+](C)C)C=C2)c2ccc(N(C)C)cc2)cc1 ?
0.861 µM (active)

###

Test: Tanguay_ZF_120hpf_NC_legacy: (Legacy) Oregon State University Tanguay Lab 120 Hour Post-fertilization zebrafish Assay for Notochord and Tail Malformation (AID 2283656)
Results filed as inconclusive are left out. Calls of active or inactive are those of the source. The calls were made as follows: active = hit-call score of the fitted dose curve at least 0.9, where 1 is the maximum; inconclusive = response in the unintended direction; inactive = score below 0.9.
experimental-endpoint: outcome

Consider the reported outcome for these compounds:
- structure-string: "Cc1cccc2ccccc12"
  reported-value: "inactive"
- structure-string: "O=c1c(-c2ccc(O)cc2)coc2cc(O)cc(O)c12"
  reported-value: "inactive"
- structure-string: "Cc1occc1C(=O)Nc1ccc(C(=O)N2CCC(F)(F)/C(=C\\C(=O)N3CCC(N4CCCCC4)CC3)c3ccccc32)cc1"
  reported-value: "inactive"
- structure-string: "NCc1cccc(C2CCN(C(=O)c3ccc(C#Cc4ccccc4F)o3)CC2)c1"
  reported-value: "inactive"
- structure-string: "CCO[Si](CCCNC(N)=O)(OCC)OCC"
  reported-value: "inactive"
- structure-string: "c1ccc(C[n+]2cccc3ccccc32)cc1"
  reported-value: "inactive"
- structure-string: "O=c1ccc2ccccc2o1"
  reported-value: "inactive"
- structure-string: "CCCCCc1ccc(N)cc1"
  reported-value: "inactive"
- structure-string: "CCCCCCCC[Si](OCC)(OCC)OCC"
  reported-value: "inactive"
- structure-string: "C[C@]12CC[C@@H]3c4ccc(O)cc4CC[C@H]3[C@@H]1CC[C@H]2O"
  reported-value: "inactive"

What outcome value was documented for this compound, CCN(Cc1cccnc1)C(=O)c1cccc(Cl)c1[C@]1(C)C(=O)N(Cc2ccc(OC)cc2OC)c2ccc(Cl)cc21 ?
inactive

What outcome value was documented for this compound, CCN(CC)C(=O)c1cc(S(=O)(=O)Cc2ccccc2)c(N2CCC(c3ccccc3)CC2)cc1N(CC)CCN(C)C ?
inactive

What outcome value was documented for this compound, CC1=CC(=O)/C(=C(/C)O)C(=O)O1 ?
inactive

What outcome value was documented for this compound, O=C1CCC(C2CCCCC2)CC1 ?
inactive
